All figures here come from PubChem BioAssay (EPA / NIEHS).

- Read-out: Monokine induced gamma interferon (MIG), CXCL9 (gene 4283)
- PROTOCOL SUMMARY: BSK_BE3C_MIG: BioMAP Diversity Plus: BE3C Assay for Monokine induced gamma interferon (MIG) Biomarker Activity (AID 2283035)
- RECORDED CONDITIONS: primary human bronchial epithelial cells; actives raise or lower the signal
Calls of active or inactive are those of the source. Rule for the calls: active = hit-call score of the fitted dose curve at least 0.9, where 1 is the maximum; inactive = score below 0.9.
// allowed return values: T (active), F (inactive)

[[record]]
molecule = "[2H]C1([2H])[n+]2ccccc2-c2cccc[n+]2C1([2H])[2H]"
label_value = "F"

[[record]]
molecule = "Oc1cc(Cl)ccc1Oc1ccc(Cl)cc1Cl"
label_value = "T"

[[record]]
molecule = "CCCN(CCOc1c(Cl)cc(Cl)cc1Cl)C(=O)n1ccnc1"
label_value = "F"

[[record]]
molecule = "COC(=O)c1ccccc1S(=O)(=O)NC(=O)Nc1nc(C)nc(OC)n1"
label_value = "F"

[[record]]
molecule = "CCOC1Oc2ccc(OS(C)(=O)=O)cc2C1(C)C (stereo not given)"
label_value = "F"

[[record]]
molecule = "O=[N+]([O-])/N=C1\\NCCN1Cc1ccc(Cl)nc1"
label_value = "F"

[[record]]
molecule = "O=C(Nc1ccccc1)Nc1cnns1"
label_value = "F"

[[record]]
molecule = "COC(=O)c1ccccc1S(=O)(=O)NC(=O)N(C)c1nc(C)nc(OC)n1"
label_value = "F"


// return assay outcome for CC1(C)C(C=C(Cl)Cl)C1C(=O)OC(C#N)c1ccc(F)c(Oc2ccccc2)c1 (stereo not given)
F

Can you look up the reported call for COP(=S)(OC)Oc1ccc([N+](=O)[O-])cc1 for me?
F

---

- Read-out: Cytochrome P450 (CYP1A2), CYP1A2 (gene 1544)
- PROTOCOL SUMMARY: LTEA_HepaRG_CYP1A2: Life Technologies and Expression Analysis (LTEA) Assay for Cytochrome P450 (CYP1A2) using HepaRG (AID 2283479)
- RECORDED CONDITIONS: mRNA level, 48 h; actives raise or lower the signal
Activity calls are given as the source filed them. How the source made its calls: active means hit-call score of the fitted dose curve at least 0.9, where 1 is the maximum; inactive means score below 0.9.
Pick one: active, inactive

[[record]]
molecule = "CCOCN(C(=O)CCl)c1c(C)cccc1CC"
label_value = "inactive"


Next, consider the following molecule.
Could you please tell me the result logged for C[C@H]1[C@H](c2ccc(Cl)cc2)SC(=O)N1C(=O)NC1CCCCC1 in this assay?
active

---

- PROTOCOL SUMMARY: LTEA_HepaRG_LDH_cytotoxicity: Cytotoxicity Assessment in the Life Technologies and Expression Analysis (LTEA) Assay (AID 2283563)
- Protocol: LTEA_HepaRG is a cell based, multiplexed-readout assay that uses HepaRG, a human liver cell line, with measurements taken at 48 hours after chemical dosing on a 96-well plate.LTEA_HepaRG_LDH_cytotoxicity is one of 102 assay component(s) measured in the LTEA HepaRG cell culture assay. It is a marker of cell viability / cytotoxicity.Data from the assay component LTEA_HepaRG_LDH_cytotoxicity was analyzed into 1 endpoint. […]
Active and inactive are the calls of the source. Rule for the calls: active = hit-call score of the fitted dose curve at least 0.9, where 1 is the maximum; inconclusive = response in the unintended direction; inactive = score below 0.9.
Lab note: assign the record to one of y for active, n for inactive

[[record]]
compound = "N#Cc1c(Cl)c(Cl)c(Cl)c(C#N)c1Cl"
label_value = "y"

[[record]]
compound = "CCCN(CCOc1c(Cl)cc(Cl)cc1Cl)C(=O)n1ccnc1"
label_value = "y"

[[record]]
compound = "CC(C)OC(=O)Nc1cccc(Cl)c1"
label_value = "n"

[[record]]
compound = "O=S1OCC2C(CO1)C1(Cl)C(Cl)=C(Cl)C2(Cl)C1(Cl)Cl (configuration not stated)"
label_value = "y"

[[record]]
compound = "CC1(C)C(C=C(Cl)Cl)C1C(=O)OC(C#N)c1ccc(F)c(Oc2ccccc2)c1 (configuration not stated)"
label_value = "n"

[[record]]
compound = "CCc1ccc(C(=O)NN(C(=O)c2cc(C)cc(C)c2)C(C)(C)C)cc1"
label_value = "y"

[[record]]
compound = "N#CN"
label_value = "n"

[[record]]
compound = "CNC(=O)Oc1ccccc1OC(C)C"
label_value = "n"


Which outcome was entered for the compound COP(=S)(OC)Oc1ccc([N+](=O)[O-])cc1 in this test?
n

Called result for CCCN(CCC)c1c([N+](=O)[O-])cc(C(F)(F)F)cc1[N+](=O)[O-]
n

Assay outcome for CCC(C)(NC(=O)c1cc(Cl)c(C)c(Cl)c1)C(=O)CCl (configuration not stated) : what was it?
y

Tell me the recorded outcome of this test for O=[N+]([O-])c1c(Cl)c(Cl)c(Cl)c(Cl)c1Cl .
n

---

- Read-out: Interferon-gamma inducible Protein 10 (IP10), CXCL10 (gene 3627)
- PROTOCOL SUMMARY: BSK_hDFCGF_IP10: BioMAP Diversity Plus: hDFCGF Assay for Interferon-gamma inducible Protein 10 (IP10) Biomarker Activity (AID 2283053)
- RECORDED CONDITIONS: primary human foreskin fibroblasts; actives raise or lower the signal
Calls of active or inactive are those of the source. Rule for the calls: active = hit-call score of the fitted dose curve at least 0.9, where 1 is the maximum; inactive = score below 0.9.
Mark one answer only. Choices: label 1 (active), label 0 (inactive)

// known answers, use as guide
[[record]]
compound = "O=S1OCC2C(CO1)C1(Cl)C(Cl)=C(Cl)C2(Cl)C1(Cl)Cl (stereo unspecified)"
label_value = "label 1"

[[record]]
compound = "COc1nn(CSP(=S)(OC)OC)c(=O)s1"
label_value = "label 1"

[[record]]
compound = "C[C@H]1[C@H](c2ccc(Cl)cc2)SC(=O)N1C(=O)NC1CCCCC1"
label_value = "label 1"

[[record]]
compound = "CCC(C)Nc1c([N+](=O)[O-])cc(C(C)(C)C)cc1[N+](=O)[O-] (stereo unspecified)"
label_value = "label 1"

[[record]]
compound = "CNC(=O)Oc1ccccc1OC(C)C"
label_value = "label 0"

[[record]]
compound = "C#CCN1C(=O)COc2cc(F)c(N3C(=O)C4=C(CCCC4)C3=O)cc21"
label_value = "label 0"


Identify the outcome logged in this assay for the compound shown: O=C(Nc1ccccc1)Nc1cnns1
label 0

Recorded test call requested for Cc1cc(C)nc(NC(=O)NS(=O)(=O)c2ccccc2C(=O)OC2COC2)n1
label 0

So what was the verdict on CCOc1nc(NC)nc(NC(=O)NS(=O)(=O)c2ccccc2C(=O)OC)n1 in this test?
label 1

---

- PROTOCOL SUMMARY: STM_H9_CystineISnorm_perc: Stemina devTOX quickPredict H9 human embryonic stem cell (hESC)-based Assay for Cystine (CYSS) Metabolite Biomarker, Normalized (AID 2283713)
Activity calls are given as the source filed them. Rule for the calls: active = hit-call score of the fitted dose curve at least 0.9, where 1 is the maximum; inactive = score below 0.9.
PARAMETER: AC50

[[record]]
structure_string = "CCOCN(C(=O)CCl)c1c(C)cccc1CC"
result = "inactive"

[[record]]
structure_string = "O=C(Nc1ccccc1)Nc1cnns1"
result = "58.7 µM (active)"

[[record]]
structure_string = "O=S(=O)(O)C(F)(F)C(F)(F)C(F)(F)C(F)(F)C(F)(F)C(F)(F)C(F)(F)C(F)(F)F"
result = "inactive"


---

- Read-out: Interferon-gamma inducible Protein 10 (IP10), CXCL10 (gene 3627)
- PROTOCOL SUMMARY: BSK_BE3C_IP10: BioMAP Diversity Plus: BE3C Assay for Interferon-gamma inducible Protein 10 (IP10) Biomarker Activity (AID 2283034)
- RECORDED CONDITIONS: primary human bronchial epithelial cells; actives raise or lower the signal
The source made the active and inactive calls. Rule for the calls: active = hit-call score of the fitted dose curve at least 0.9, where 1 is the maximum; inactive = score below 0.9.
PARAMETER: AC50

[[record]]
molecule = "CC(C)(C)C(O)/C(=C\\c1ccc(Cl)cc1Cl)n1cncn1 (stereo unspecified)"
result = "31.1 µM (active)"

[[record]]
molecule = "N#Cc1c(Cl)c(Cl)c(Cl)c(C#N)c1Cl"
result = "2.35 µM (active)"

[[record]]
molecule = "CC(C)N(C(=O)COc1nnc(C(F)(F)F)s1)c1ccc(F)cc1"
result = "inactive"

[[record]]
molecule = "COP(=S)(OC)Oc1ccc([N+](=O)[O-])cc1"
result = "inactive"


Recorded AC50 for CCOCN(C(=O)CCl)c1c(C)cccc1CC , please?
16.5 µM (active)

I would be grateful if you could share the reported AC50 for COC(=O)c1ccccc1CS(=O)(=O)NC(=O)Nc1nc(OC)cc(OC)n1 .
inactive

---

- Read-out: succinate dehydrogenase complex iron sulfur subunit B (SDHB), SDHB (gene 6390)
- PROTOCOL SUMMARY: LTEA_HepaRG_SDHB: Life Technologies and Expression Analysis (LTEA) Assay for succinate dehydrogenase complex iron sulfur subunit B (SDHB) using HepaRG (AID 2283528)
- RECORDED CONDITIONS: mRNA level, 48 h; actives raise or lower the signal
The source made the active and inactive calls. Rule for the calls: active = hit-call score of the fitted dose curve at least 0.9, where 1 is the maximum; inactive = score below 0.9.
I would appreciate it if you answered using one of these outcomes: active, inactive

See these solved cases before continuing.
[[record]]
molecule = "CC(C)(C)C(O)/C(=C\\c1ccc(Cl)cc1Cl)n1cncn1 (stereo not drawn)"
label_value = "inactive"

[[record]]
molecule = "C#CCN1C(=O)COc2cc(F)c(N3C(=O)C4=C(CCCC4)C3=O)cc21"
label_value = "inactive"

[[record]]
molecule = "CC(C)N(C(=O)COc1nnc(C(F)(F)F)s1)c1ccc(F)cc1"
label_value = "inactive"

[[record]]
molecule = "O=[N+]([O-])/N=C1\\NCCN1Cc1ccc(Cl)nc1"
label_value = "active"


How was CNC(=O)CSP(=S)(OC)OC classified in this test?
inactive

State the result this test recorded for CC(C)(C)C(O)C(Oc1ccc(Cl)cc1)n1cncn1 (stereo not drawn) .
inactive

Hi, do you know how CCC(C)(NC(=O)c1cc(Cl)c(C)c(Cl)c1)C(=O)CCl (stereo not drawn) came out in this test?
inactive

Hello, I am checking results. What call was entered for Clc1ccccc1-c1nnc(-c2ccccc2Cl)nn1 ?
inactive

How did this test come out for CCCN(CCOc1c(Cl)cc(Cl)cc1Cl)C(=O)n1ccnc1 ?
active

What call does the record list for CNC(=O)Oc1ccccc1OC(C)C ?
inactive

Which outcome was entered for the molecule CCOCN(C(=O)CCl)c1c(C)cccc1CC in this test?
inactive

For N#Cc1c(Cl)c(Cl)c(Cl)c(C#N)c1Cl , what call appears in the results of this test?
inactive

Recorded test outcome, item O=C1c2ccccc2C(=O)N1SC(Cl)(Cl)Cl
inactive
